- Test system: IND3 strain of Nilaparvata lugens (Neonicotinoid resistant)
- experimental.details: Example B2b: Nilaparvata lugens larvicide, feeding/contact activity, preventive (rice seedlings), resistant strain
- Assay type: in vivo
- test.conditions: Lowest concentration giving greater than 80% mortality of resistant (IND3) hoppers / same for susceptible hoppers; Nilaparvata lugens N3 nymphs on rice seedlings, 6 and 12 days after treatment
measured.quantity: Resistance Factor (RF80)
Could you respond with only the numeric value?

Give IND3 strain of Nilaparvata lugens (Neonicotinoid resistant) Resistance Factor (RF80) for the following compound: CCOC(=O)OC1=C(c2c(C)cc(C)cc2C)C(=O)N(OC2CCCO2)C12CCN(OC)CC2 (centres unmarked)
1

Provide the reported Resistance Factor (RF80) (system: IND3 strain of Nilaparvata lugens (Neonicotinoid resistant)) for CON1CCC2(CC1)C(=O)C(c1c(C)cc(C)cc1C)C(=O)N2C (centres unmarked)
1

Return reported Resistance Factor (RF80) for target or system IND3 strain of Nilaparvata lugens (Neonicotinoid resistant), item CCOC(=O)OC1=C(c2c(C)cc(Cl)cc2C)C(=O)N(C)C12CCN(OC)CC2 .
4
